System: Raji
Experiment: Inhibition of 12-O-tetradecanoylphorbol-13-acetate-induced EBV-early antigen activation in human Raji cells assessed as EA induction at 100 molar ratio after 48 hrs by immunofluorescence technique relative to 12-O-tetradecanoylphorbol-13-acetate
Type: cell-based
Set-up: scale not given: the % may be the effect or the level left
Settings: human gammaherpesvirus 4
reported-endpoint: Activity (%)

CC(O)c1cc2c(o1)C(=O)c1cccc(O)c1C2=O (racemic); 20.7
C[C@H](O)c1cc2c(o1)C(=O)c1cccc(O)c1C2=O; 16.9
COc1cc(/C=C/C(=O)CC(=O)/C=C/c2ccc(O)c(OC)c2)ccc1O [CURCUMIN]; 74.5
C[C@H](O)c1cc2c(o1)C(=O)c1c(O)cccc1C2=O; 58.2
C[C@@H](O)c1cc2c(o1)C(=O)c1cccc(O)c1C2=O; 24.7
